MEASUREMENT_PROTOCOL: In vivo pharmacokinetics in dog
Design: species or system male Beagle dogs
CONDITION_CONTEXT: male, Beagle, plasma, PO 5 mg/kg, 5 min, mean
Protocol: DNDI-6148 was administrated intravenously at 1 mg/kg and orally at 5 mg/kg to male Beagle dogs. The formulation for the i.v. leg was 2% ethanol, 1.0 mol equiv NaOH, dextrose (5% solution) filtered, and adjusted to pH 7, and for the p.o. leg, the formulation was 2% ethanol, 1.0 mol equiv NaOH, and dextrose (5% solution). […] PK parameters were calculated using WinNonlin software (version 6.3).
VALUE_KIND: concentration at 5 min (ng/mL)
Give bare numbers, in ng/mL.

Annotate the molecule Cc1c(C(=O)Nc2ccc3c(c2)B(O)OC3)nnn1-c1ccccn1 [Compound 23] with its measured concentration at 5 min. 266

###

MEASUREMENT_PROTOCOL: In vivo pharmacokinetics in dog
Set-up: species or system male Beagle dogs
CONDITION_CONTEXT: male, Beagle, plasma, PO 5 mg/kg, mean
VALUE_KIND: AUC(0-inf) (ng·h/mL)
Answers are plain numbers, in ng·h/mL.

Annotate the compound Cc1c(C(=O)Nc2ccc3c(c2)B(O)OC3)nnn1-c1ccccn1 with its measured AUC(0-inf). 2530

###

MEASUREMENT_PROTOCOL: Hepatocyte stability, dog
Type: in vitro ADME
CONDITION_CONTEXT: Beagle, cryopreserved dog hepatocytes
VALUE_KIND: hepatocyte CLint at 1 μM (µL/min/1e6 cells)
Answers are plain numbers, in µL/min/1e6 cells.

Annotate the compound Cc1c(C(=O)Nc2ccc3c(c2)B(O)OC3)nnn1-c1ccccn1 with its measured hepatocyte CLint at 1 μM. 2.4

###

MEASUREMENT_PROTOCOL: In vivo pharmacokinetics in dog
Parameters: species or system male Beagle dogs
CONDITION_CONTEXT: male, Beagle, plasma, IV 1.0 mg/kg, mean
VALUE_KIND: half-life (h)
Answers are plain numbers, in h.

Annotate the compound Cc1c(C(=O)Nc2ccc3c(c2)B(O)OC3)nnn1-c1ccccn1 with its measured half-life. 1.49

###

MEASUREMENT_PROTOCOL: In vivo pharmacokinetics in dog
Design: species or system male Beagle dogs
CONDITION_CONTEXT: male, Beagle, plasma, IV 1.0 mg/kg, 3 h, mean
VALUE_KIND: concentration at 3 h (ng/mL)
Give bare numbers, in ng/mL.

Annotate the molecule Cc1c(C(=O)Nc2ccc3c(c2)B(O)OC3)nnn1-c1ccccn1 [Compound 23] with its measured concentration at 3 h. 97.7

###

System: MDR1
MEASUREMENT_PROTOCOL: in vitro
Format: in vitro ADME
CONDITION_CONTEXT: dog, MDCK-MDR1, pH 7.4, Mean total recovery B to A
VALUE_KIND: recovery at 150 min, 2 μM (%)
Numbers only, in %.

Annotate the compound Cc1c(C(=O)Nc2ccc3c(c2)B(O)OC3)nnn1-c1ccccn1 with its measured recovery at 150 min, 2 μM. 87.8

###

MEASUREMENT_PROTOCOL: In vivo pharmacokinetics in rat
Parameters: species or system male Sprague-Dawley rats
CONDITION_CONTEXT: male, Sprague-Dawley, rat, plasma; PO 10.4 mg/kg; mean of R4-R6
Description: DNDI-6148 was formulated in 2% ethanol, 1 mol equiv NaOH, dextrose (5% solution), and administrated to male Sprague-Dawley rats, either i.v. after filtration and pH adjustment (at 2 mg/kg), or p.o. as a homogenous suspension (at 10 mg/kg). […] PK parameters were calculated using WinNonlin software (version 6.21 and 6.3).
VALUE_KIND: Cmax (ng/mL)
Answers are plain numbers, in ng/mL.

Annotate the molecule Cc1c(C(=O)Nc2ccc3c(c2)B(O)OC3)nnn1-c1ccccn1 with its measured Cmax. 7330
